Catalogue of inhibition at 1 µM readings, one per entry.
Target: Bradykinin receptor (Cavia porcellus)
Construct: The ileum was removed and homogenized in buffer; from tissue; host or cells: guinea pig ileum, crude membrane suspension
Sequence (O70526 whole entry): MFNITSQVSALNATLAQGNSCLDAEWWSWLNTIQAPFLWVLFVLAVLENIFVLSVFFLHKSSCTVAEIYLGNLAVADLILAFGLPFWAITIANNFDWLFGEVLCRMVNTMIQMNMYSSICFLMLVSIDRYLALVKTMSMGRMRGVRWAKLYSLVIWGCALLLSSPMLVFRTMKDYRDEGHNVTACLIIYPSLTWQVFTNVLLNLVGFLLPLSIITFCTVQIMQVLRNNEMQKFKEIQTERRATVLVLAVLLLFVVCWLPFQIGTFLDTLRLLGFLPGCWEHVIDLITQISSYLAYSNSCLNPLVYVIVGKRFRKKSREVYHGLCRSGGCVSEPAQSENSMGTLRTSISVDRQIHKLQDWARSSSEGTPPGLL
Assay: 3H-Bradykinin receptor binding (crude ileum membrane)
Parameters: species or system guinea pig (male Hartly strain)
Conditions: concentration: 1 × 10^-6 M; guinea pig ileum membrane, room temperature, 60 minutes
Structures can show the parent of a compound that is named as a salt.
Write the number in % without appending the unit.

Value of measured inhibition at 1 µM for the entry CNC(=O)c1ccc(/C=C/C(=O)NCC(=O)N(C)c2ccc(Cl)c(COc3cccc4ccc(C)nc34)c2)cc1 [37-(5) hydrochloride] : 100

Value of measured inhibition at 1 µM for the entry CNC(=O)c1ccc(/C=C/C(=O)NCC(=O)N(C)c2ccc(C)c(COc3cccn4c(=O)cc(C)nc34)c2C)cc1 [90-(2)] : 98

Value of measured inhibition at 1 µM for the entry CNC(=O)c1nc2ccc(C(=O)NCC(=O)N(C)c3ccc(Cl)c(COc4cccc5ccc(C)nc45)c3Cl)cc2cc1C [25-(2) dihydrochloride] : 96

Value of measured inhibition at 1 µM for the entry Cc1ccc2cccc(OCc3c(Cl)ccc(N(C)C(=O)CNC(=O)CNc4nc5ccccc5s4)c3Cl)c2n1 [2-(14)] : 96

Value of measured inhibition at 1 µM for the entry CNC(=O)c1ccc(/C=C/C(=O)NCC(=O)N(C)c2ccc(Cl)c(CNc3cccc4ccc(C)nc34)c2Cl)cc1 [Example 73-(4), dihydrochloride] : 95

Value of measured inhibition at 1 µM for the entry COC(=O)c1cncc(NC(=O)NCC(=O)N(C)c2ccc(Cl)c(COc3cccc4ccc(C)nc34)c2Cl)c1 [34-(3)] : 100

Value of measured inhibition at 1 µM for the entry CNC(=O)c1ccc(/C=C/C(=O)NCC(=O)N(C)c2ccc(Cl)c(COc3cccc4c(NCCOC)cc(C)nc34)c2Cl)cc1 [10-(9) dihydrochloride] : 99
